system: Cannabinoid receptor 2 (Homo sapiens) (UniProt P34972)
Sequence (P34972 whole entry): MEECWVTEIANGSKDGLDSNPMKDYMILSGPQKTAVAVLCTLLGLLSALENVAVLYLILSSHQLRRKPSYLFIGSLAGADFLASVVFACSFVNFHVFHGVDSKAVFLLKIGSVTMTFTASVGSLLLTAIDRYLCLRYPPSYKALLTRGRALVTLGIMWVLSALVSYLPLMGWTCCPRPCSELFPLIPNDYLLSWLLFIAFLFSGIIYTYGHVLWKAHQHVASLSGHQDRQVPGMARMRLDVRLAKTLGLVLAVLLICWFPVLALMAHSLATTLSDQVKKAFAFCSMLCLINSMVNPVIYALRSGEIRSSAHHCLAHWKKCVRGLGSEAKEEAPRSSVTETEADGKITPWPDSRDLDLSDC
protocol: Percent inhibition of specific binding of [3H]WIN-55212-2 towards human cannabinoid receptor 2 from Chinese hamster ovary cell membranes at the concentration of 10 uM
Provide the reported inhibition of each item.
Quick note: unit goes after the number.

[[record]]
given_smiles = "CCCCCCCCCCCCCCCC(=O)NC1CCCC1"
property_label = "inhibition"
test_value = "9.5%"

[[record]]
given_smiles = "CCCCCCCCCCCCCCCC(=O)NCCBr"
property_label = "inhibition"
test_value = "15.1%"

[[record]]
given_smiles = "CCCCCCCCCCCCCCCC(=O)NOC"
property_label = "inhibition"
test_value = "5.2%"

[[record]]
given_smiles = "CCCCCCCCCCCCCCCC(=O)Nc1cccc(O)c1"
property_label = "inhibition"
test_value = "3.9%"

[[record]]
given_smiles = "CCCCCCCCCCCCCCCC(=O)Nc1ccc(O)cc1"
property_label = "inhibition"
test_value = "5%"

[[record]]
given_smiles = "CCCCCCCCCCCCCCCC(=O)NCC(=O)OC"
property_label = "inhibition"
test_value = "4.1%"

[[record]]
given_smiles = "CCCCCCCCCCCCCCCC(=O)Nc1ccccc1O"
property_label = "inhibition"
test_value = "2.7%"

[[record]]
given_smiles = "CCCCCCCCCCCCCCCC(=O)NCCC"
property_label = "inhibition"
test_value = "6.1%"


Need inhibition for each of these compounds.
1. CCCCCCCCCCCCCCCC(=O)Nc1ccc2ccccc2c1
2. CCCCCCCCCCCCCCCC(=O)N(C)C

### Response
["0.1%", "6.4%"]

meta.source: ChEMBL document CHEMBL1136715
